Please provide measured melting point for the entries that follow.
Where a name gives a salt, the structure may show the parent alone.

Examples with their reported melting point follow.
| COMPOUND | melting point |
| --- | --- |
| Nc1ccc(S(=O)(=O)n2ccc3c(OC[C@@H]4CCCN4)cccc32)cc1 (as salt: hydrochloride) | 150 °C (dec.) |
| O=S(=O)(c1ccc(Cl)s1)n1ncc2c(OC[C@@H]3CCCN3)cccc21 (as salt: hydrochloride) | 195 °C |

Moving on to the next compound.
Supply reported melting point belonging to this compound: Nc1ccc(S(=O)(=O)n2ncc3c(OC[C@@H]4CCCN4)cccc32)cc1Cl (as salt: hydrochloride) 220 °C (dec.)
